Where do these numbers come from? They come from PubChem BioAssay (EPA / NIEHS).

- ASSAY_TARGET: Bile acid receptor (Homo sapiens) (UniProt Q96RI1)
- Sequence (Q96RI1 whole entry, looked up): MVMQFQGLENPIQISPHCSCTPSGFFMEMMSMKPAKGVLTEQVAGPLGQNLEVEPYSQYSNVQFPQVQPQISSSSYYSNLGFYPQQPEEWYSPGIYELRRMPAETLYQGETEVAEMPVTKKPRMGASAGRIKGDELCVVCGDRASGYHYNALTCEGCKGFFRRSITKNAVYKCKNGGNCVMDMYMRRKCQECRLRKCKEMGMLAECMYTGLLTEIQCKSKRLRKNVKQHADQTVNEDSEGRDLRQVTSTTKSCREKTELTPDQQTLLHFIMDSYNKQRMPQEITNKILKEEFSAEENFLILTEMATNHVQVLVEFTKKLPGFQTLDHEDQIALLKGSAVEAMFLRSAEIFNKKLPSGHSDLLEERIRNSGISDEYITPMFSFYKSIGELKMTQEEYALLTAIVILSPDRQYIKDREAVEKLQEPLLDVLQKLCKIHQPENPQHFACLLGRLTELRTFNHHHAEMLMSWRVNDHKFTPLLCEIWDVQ
- METHOD_SUMMARY: ATG_IR1_CIS: Attagene CIS-FACTORIAL HepG2 Assay for human Nuclear Receptor Subfamily 1 Group H Member 4 (NR1H4), IR1 submotif (AID 2282946)
- APPLIED_CONDITIONS: IR1 reporter transcription, actives raise or lower the signal
Calls of active or inactive are those of the source. The calls were made as follows: active = hit-call score of the fitted dose curve at least 0.9, where 1 is the maximum; inactive = score below 0.9.
Allowed answers: active, inactive

For orientation, consider the following solved cases.
CCCCCCCCCCCCCCCCCC[N+](C)(C)C    active
COC(=O)[C@]1(C)CCC[C@@]2(C)[C@H]1CC=C1C=C(C(C)C)CC[C@@H]12    active
CCC(=O)OCc1ccc(OC)cc1    inactive
[O-][n+]1ccc(Cl)cc1    inactive
Cc1ccnc(N)c1    inactive

For this compound, state the assay outcome: `Cc1cc(-n2nc3ccc(Cl)cc3n2)c(O)c(C(C)(C)C)c1`
inactive

For this compound, state the assay outcome: `O=C(O)Cc1c[nH]c2ccccc12`
inactive
